Test: Single ascending dose study in pre- and post-menopausal women, pharmacokinetics
Assay type: in vivo, human
Settings: female, human, in vivo, 0.3 mg, AUC (0-tlast) Mean
readout.label: AUC(0-t)
For clarity, give the value followed by its unit.

The compound N#Cc1ccc(C(F)(c2ccc(C#N)cc2)n2cncn2)cc1 showed AUC(0-t) equal to 605 ng·h/mL

---

Assay: Single ascending dose study in pre- and post-menopausal women, pharmacokinetics
Format: in vivo, human
Conditions: female, human, in vivo, 20 mg, AUC (0-tlast) Mean
readout.label: AUC(0-t)
Respond with a number, then the unit of measure.

Entry under test: N#Cc1ccc(C(F)(c2ccc(C#N)cc2)n2cncn2)cc1 . Its AUC(0-t) was 76700 ng·h/mL
